# credit: patent US6756373B1

biological target: cGMP PDE5 (UniProt O76074)
MEASURED_METRIC: IC50 (nM)

CCCOc1ncc(N(S(C)(=O)=O)S(C)(=O)=O)cc1-c1nc2c(CCC)nn(C)c2c(=O)[nH]1 ... 3
CCCCOc1ncc(C(=O)N(C)OC)cc1-c1nc2c(CC)n(CCOC)nc2c(=O)[nH]1 ... 8.5
CCCCOc1ncc(C(C)=O)cc1-c1nc2c(CC)n(CCOC)nc2c(=O)[nH]1 ... 6.55
CCCOc1ncc(NC(=O)CC(=O)OC)cc1-c1nc2c(CCC)nn(C)c2c(=O)[nH]1 ... 0.3

a: CCCOc1ncc(C#CC(=O)OCC)cc1-c1nc2c(CCC)nn(C)c2c(=O)[nH]1
b: CCCOc1ncc(NS(C)(=O)=O)cc1-c1nc2c(CCC)nn(C)c2c(=O)[nH]1
c: CCCOc1ncc(NCC(=O)O)cc1-c1nc2c(CCC)nn(C)c2c(=O)[nH]1
d: CCCCOc1ncc(C(=O)CN2CCOCC2)cc1-c1nc2c(CC)n(CCOC)nc2c(=O)[nH]1
Challenge: Would you mind ranking these compounds by ascending IC50? Show the ranking through the labels, in the order asked for.
Response given: a, b, c, d
(a: 0.3 nM, b: 0.9 nM, c: 5 nM, d: 30.7 nM)
